- Tested on: Wnt5a (protein binding on small-molecule microarray)
- PROTOCOL_DESCRIPTION: small molecules binding Wnt5a protein – biophysical, small-molecule microarray, 635/667 nm fluorescence, primary screen (AID 1142);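 also: fluorescence read at 667 nm with signal to noise per printed feature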
- EXPERIMENTAL_SETUP: 635 nm fluorescence, higher = more signal
Criterion: composite z-score meeting or surpassing 0.4. Met: criterion met. Not met: criterion not met.

Q) I'd appreciate it if you could say whether `COCCCNC(=O)[C@]1(Cc2ccccc2CN=[N+]=[N-])N=C(c2ccc(OCCCO)cc2)O[C@@H]1c1ccccc1CN=[N+]=[N-]` has composite z-score at least equal to 0.4.
A) criterion met

Q) Entry `COC(=O)C(CC#Cc1ccc2c(c1)[C@]1(C(=O)N2)[C@H](c2ccccc2OCCO)N2[C@H](c3ccccc3)[C@H](c3ccccc3)OC(=O)[C@H]2[C@@H]1C(=O)Nc1nc2ccccc2s1)C(=O)OC` : is its composite z-score no less than 0.4?
A) criterion not met

Q) Check the entry `O=C1N(Cc2ccccc2)c2ccccc2[C@H]2OC(c3ccc(OCCCO)cc3)=N[C@@]12CCS(=O)(=O)c1ccccc1` : does composite z-score equal or exceed 0.4?
A) criterion met

Q) Say whether `CCCC[C@H]1OB(O)C[C@H]2C1=C(COc1ccccc1)Cn1c(=O)n(-c3ccccc3)c(=O)n12` shows composite z-score of 0.4 or more.
A) criterion not met

Q) Please check the record C[C@]12C(=O)N(CCCCCO)[C@@H]3C(=O)N(c4ccc(Cl)cc4)CC=CC31O[C@@H]1/C=C\CCCOC(=O)C12 (stereo partly specified) and state if its composite z-score is at or above 0.4.
A) criterion not met

Q) Exam item: decide whether the reported composite z-score for `O=C1O[C@H](c2ccccc2)[C@H](c2ccccc2)N2[C@H]1[C@@H](C(=O)N1CCCCCCC1)[C@]1(C(=O)Nc3ccc(C#CCCO)cc31)[C@H]2c1ccc(OCCO)cc1` is at least 0.4.
A) criterion met

* * *

- PROTOCOL_DESCRIPTION: forskolin-driven CRE-LacZ activity in PC12 – cell-based, CRE-LacZ reporter, forskolin-stimulated, primary screen (AID 1146);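 also: PC12 cells with 6xCRE LacZ reporter stimulated by forskolin 10 µM; beta-galactosidase reporter signal reflecting CREB driven transcription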
- EXPERIMENTAL_SETUP: luminescence, 4.5 h, higher = more signal, called active from +8 up or from −8 down
Classify by measured z-score: Met if it is equal to or exceeds 0.3, Not met if it is smaller.

Q) Reported z-score at or above 0.3? `NC(=O)[C@H]1[C@@H]2C(=O)O[C@@H](c3ccccc3)[C@@H](c3ccccc3)N2[C@@H](c2ccc(O)cc2)[C@]12C(=O)Nc1ccc(C#CC3(O)CCCCCC3)cc12`
A) Met

Q) Could you tell me if the measured z-score of `O=C1O[C@H](c2ccccc2)[C@H](c2ccccc2)N2[C@H]1[C@@H](C(=O)N1CCN(c3ncccn3)CC1)[C@]1(C(=O)Nc3ccc(C#CCCO)cc31)[C@H]2c1ccc(OCCO)cc1` reaches 0.3 or more?
A) Met

Q) Item `C[C@H]1ON(c2ccccc2)[C@@H](c2ccccc2)[C@@H]1C(=O)N1C(=O)OC[C@@H]1c1ccccc1` with z-score of 0.3 or above?
A) Not met

Q) Quick check, z-score >= 0.3? `O=C(NCc1ccccc1)[C@]1(Cc2ccccc2)N=C(c2ccc(OCCCO)cc2)O[C@@H]1c1ccccc1`
A) Not met

Q) I'd appreciate it if you could say whether CN1C(=O)C2C=CC(C(O)c3ccc(F)cc3)N(N3CCCCC3)C2C1=O (stereo not drawn) has z-score at least equal to 0.3.
A) Not met

Q) # check: z-score of `COCCCNC(=O)[C@@]1(Cc2ccccc2)COC(c2ccc(OCCCO)cc2)=N1` is greater than or equal to 0.3
A) Met

Q) Does z-score meet or surpass 0.3 for O=C1OCC=C[C@H]2OC34C=CCN(CCN5CCOCC5)C(=O)[C@H]3N(CCCCCO)C(=O)[C@@H]4[C@@H]12 (stereo partly drawn) ?
A) Not met

Q) In plain terms: is recorded z-score at least 0.3 for CC(C)C(CO)N1C(=O)[C@@H]2[C@H]3C(=O)OCC=C[C@H]3OC23C=CCN(CCN2CCOCC2)C(=O)[C@@H]13 (stereo partly drawn) ?
A) Met

Q) Dear colleague, could you confirm whether `CCC[C@@H]1C[C@@]1(CCC)[C@@H](NC(=O)c1ccco1)c1ccc(Cl)cc1` has z-score at or above 0.3?
A) Met

Q) Determine whether measured z-score meets or exceeds 0.3 for `COC(=O)[C@@]1(Cc2ccc(OC)cc2)[C@H]2c3cc(C(=O)N(C)C)n(Cc4cc(C)n(C)n4)c3C[C@H]2CN1C(=O)c1ccccc1`
A) Met

Q) hey, is z-score for this one >= 0.3? `C[N+](C)(C)CCCC[C@@H]1NC(=O)[C@H]2C[C@@H](C(=O)NCCCCCCN)[C@@H](c3cccc(OCCO)c3)N2C1=O`
A) Not met

Q) Can `O=C1O[C@H](c2ccccc2)[C@H](c2ccccc2)N2[C@H]1[C@@H](C(=O)NC[C@H](O)c1ccccc1)[C@]1(C(=O)Nc3ccccc31)[C@H]2c1ccccc1OCCO` be said to have z-score at or above 0.3?
A) Not met

Q) State whether the measured z-score reaches 0.3, counting equality as reaching it, for `CC1=C2[C@@H](CCc3ccccc3)OB(O)C[C@@H]2[C@@H]2C(=O)C=CC(=O)[C@@H]2C1`
A) Met

Q) Please tell me: is the compound `CCC[C@@H]1C[C@@]1(CCC)[C@@H](NC(=O)c1cccs1)c1ccc(Cl)cc1` at or over 0.3 in terms of z-score?
A) Not met

Q) Evaluate `C=CCOC(=O)[C@@H]1[C@H]2C(=O)O[C@H](c3ccccc3)[C@H](c3ccccc3)N2[C@H](c2ccc(OCCOC(=O)[C@H]3C[C@H]4C(=O)N[C@@H](Cc5ccccc5)C(=O)N4[C@H]3c3cccc(OCCO)c3)cc2)[C@@]12C(=O)Nc1ccc(I)cc12` : z-score at minimum 0.3?
A) Met

Q) Please indicate if the recorded z-score for `CCCC[C@@H](O)C1=C(COc2ccccc2)Cn2c(=O)n(-c3ccccc3)c(=O)n2[C@H]1CO` meets or exceeds 0.3.
A) Not met

Q) Form field: z-score at least 0.3? Entry: `Cc1ccc(S[C@]2(C(=O)NCCN3CCOCC3)CC(=O)N(C3Cc4ccccc4C3)[C@@H]2c2ccc(CO)cc2)cc1`
A) Met

Q) State whether the measured z-score reaches 0.3, counting equality as reaching it, for `[N-]=[N+]=NCc1ccccc1C[C@]1(C(=O)NCCN2CCOCC2)N=C(c2ccc(OCCCO)cc2)O[C@H]1c1ccccc1`
A) Not met

Q) Threshold query (z-score >= 0.3) on `CC(C)(C)OC(=O)CC[C@@]1(C(=O)N2CCCCC2)N=C(c2ccc(OCCCO)cc2)O[C@@H]1c1ccccc1CN=[N+]=[N-]`
A) Not met

Q) Item `COC(=O)[C@@]1(Cc2ccc(F)cc2)[C@H]2c3cc(C(=O)N(C)C)n(CCSCCO)c3C[C@H]2CN1C(=O)c1ccccc1` with z-score of 0.3 or above?
A) Not met

Q) Does the compound `COc1cc2c(cc1OC)CN(C(=O)[C@@H]1[C@H]3C(=O)O[C@H](c4ccccc4)[C@H](c4ccccc4)N3[C@H](c3ccc(OCCO)cc3)[C@@]13C(=O)Nc1ccc(C#CCCO)cc13)CC2` have recorded z-score that is 0.3 or more?
A) Not met

Q) Quick check: does CC(C)CCC[C@@H](C)[C@H]1CC[C@@]2(C)C3=C(CC[C@]12C)[C@@]1(C)CC[C@H](OC(=O)C(C)(C)C)C(C)(C)C1CC3 (stereo partly drawn) have z-score greater than or equal to 0.3?
A) Not met

Q) Threshold query (z-score >= 0.3) on `C=C(/C(=C/C[C@@H](OC(=O)c1ccncc1)c1cccc(OCCO)c1)c1cc(C(=O)OC)ccc1OC)C(C)C`
A) Not met

Q) Is reported z-score greater than or equal to 0.3 here: `O=C1N(CCS(=O)(=O)c2ccccc2)c2ccccc2[C@H]2OC(c3ccc(OCCCO)cc3)=N[C@@]12CCS(=O)(=O)c1ccccc1`
A) Not met

Q) Quick check, z-score >= 0.3? `Cc1ccc(S[C@]2(C(=O)O)CC(=O)N(C3CCCCC3)[C@@H]2c2ccc(CO)cc2)cc1`
A) Not met

Q) State whether the measured z-score reaches 0.3, counting equality as reaching it, for `CCOC(=O)C[C@H]1[C@H](OC(=O)c2ccc(C(=O)c3ccccc3)cc2)[C@@H](NC(=O)C2CCCCC2)c2cc(OCCCO)ccc2N1C(=O)Cc1ccc(OC)cc1`
A) Not met

Q) Has `Cc1ccc(N2C(=O)c3ccccc3[C@](C)(C(=O)NC(C)C)[C@@H]2c2ccc(CO)cc2)nc1` a recorded z-score greater than or equal to 0.3?
A) Met

Q) Could you tell me if the measured z-score of CCCCCCCCCCC(O)C1C=CC2C(=O)NC(=O)C2N1Nc1ccccn1 (stereo not drawn) reaches 0.3 or more?
A) Met
